# Method Description: FRG1 promoter luciferase signal modulators, primary screen, FRG1 inhibition for FSHD, cell-based, C2C12 myotubes, firefly/Renilla luciferase, luminescence (AID 1084)
# Study Conditions: higher = more signal, called active from +8 up or from −8 down
Calls of active or inactive are those of the source.
Property Name: z-score

compound=NCCCCCNC(=O)[C@@H]1C[C@@H]2C(=O)N3CCC[C@H]3C(=O)N2[C@@H]1c1cccc(OCCO)c1 assay_result="0.76 (inactive)"
compound=CCN1C(=O)[C@H]2[C@H]3[C@H](O)[C@H](O)CC(=NO[C@@H]4O[C@H](CO)[C@@H](O)[C@H](O)[C@H]4O)[C@@H]3CC[C@H]2C1=O assay_result="0.183 (inactive)"
compound=O=C1[C@H]2[C@H]3[C@H](O)[C@H](O)CC(=NOC[C@@H](O)COCc4ccco4)[C@@H]3CC[C@H]2C(=O)N1c1ccc(F)cc1F assay_result="-0.24 (inactive)"
compound=O=C(NN=C1C[C@@H](O)[C@@H](O)[C@@H]2[C@@H]3C(=O)N(c4cccc(Oc5ccccc5)c4)C(=O)[C@@H]3CC[C@@H]12)OCc1ccccc1 assay_result="0.31 (inactive)"
compound="O[C@@H](Cc1ccccc1)[C@H]1C2C=CCCC(c3ccccc3)=C2CN1Cc1cccc(Cl)c1 (some centres not stated)" assay_result="-2.31 (inactive)"
compound=COCCOC(=O)N1C(=O)[C@@]2(c3cc(C#Cc4ccc(OC)cc4)ccc31)[C@H](c1ccc(O)cc1)N1[C@H](c3ccccc3)[C@H](c3ccccc3)OC(=O)[C@H]1[C@@H]2C(N)=O assay_result="0.497 (inactive)"
compound="CC(CCN1CCc2nc(-c3ccccc3)c(-c3ccccc3)cc2C1)=NOC(C)CN1CCCCc2nc(C)c(C)cc21 (configuration not stated)" assay_result="1.1 (inactive)"
compound=COCCOC(=O)N1C(=O)[C@@]2(c3cc(C#CC4(O)CCCCCC4)ccc31)[C@H](C(=O)N1CCN(c3ncccn3)CC1)[C@H]1C(=O)O[C@H](c3ccccc3)[C@H](c3ccccc3)N1[C@@H]2c1ccc(OCCO)cc1 assay_result="0.401 (inactive)"
compound=O=C1[C@H]2[C@H]3[C@H](O)[C@H](O)CC(=NOC[C@@H](O)COCc4ccco4)[C@H]3CC[C@H]2C(=O)N1C1CCCCC1 assay_result="-0.784 (inactive)"
compound=O=C1C[C@@H](O)[C@@H](O)[C@@H]2[C@@H]3C(=O)N(c4ccc(F)cc4F)C(=O)[C@@H]3CC[C@@H]12 assay_result="0.25 (inactive)"
compound=CN1C(=O)[C@@]2(CCC(=O)OC(C)(C)C)N=C(c3ccc(OCCCO)cc3)O[C@H]2c2ccccc21 assay_result="-0.105 (inactive)"
compound=O=C1[C@H]2[C@H]3[C@H](O)[C@H](O)CC(=NOCc4ccccc4)[C@H]3CC[C@H]2C(=O)N1C[C@@H]1CCCO1 assay_result="-0.187 (inactive)"
compound=CO[C@H]1COC(=O)[C@@H]2CCCN2C(=O)CC=C[C@@H](C)[C@H](OC)COC(=O)CC=C[C@@H]1C assay_result="-1.1 (inactive)"
compound=O=C1C[C@]2(c3ccc([N+](=O)[O-])cc3)C(=O)N(CCN3CCOCC3)c3cc(CO)ccc3[C@H]2N1CC12CC3CC(CC(C3)C1)C2 assay_result="0.103 (inactive)"
compound=CO[C@@H]1COC(=O)[C@@H]2CCCN2C(=O)[C@@H](C)COC(=O)[C@H](COCc2ccccc2)NC(=O)CC=C[C@H]1C assay_result="-0.0485 (inactive)"
compound=CC(C)CON=C1C[C@@H](O)[C@@H](O)[C@@H]2[C@@H]3C(=O)N([C@@H](C)c4ccccc4)C(=O)[C@@H]3CC[C@H]12 assay_result="-0.997 (inactive)"
compound="CCOC(=O)C1=CCC(c2cc3ccccc3[nH]2)NC1 (configuration not stated)" assay_result="4.17 (inactive)"

* * *

# Method Description: S. cerevisiae growth modulation with rapamycin, primary screen, strain BY4716, OD600, 96 h (AID 1091); further: test concentration not given here
# Study Conditions: higher = more signal, called active from +8 up or from −8 down
Property Name: z-score

compound=CCN1C(=O)[C@H]2[C@H]3[C@H](O)[C@H](O)CC(=NOCC=C(C)CCC=C(C)C)[C@H]3CC[C@H]2C1=O assay_result=-1.11
compound=Cc1ccc(F)cc1S(=O)(=O)N[C@@H]1CCN(Cc2ccc(CC(C)C)cc2)C1 assay_result=-4.49
compound=O=C1[C@H]2[C@H]3[C@H](O)[C@H](O)CC(=NOCc4ccccc4)[C@H]3CC[C@H]2C(=O)N1c1cccc(Oc2ccccc2)c1 assay_result=-1.12
compound="CCOC(=O)[C@H](Cc1ccccc1)NC(=O)CCC1CC(OC(=O)NCc2ccc3c(c2)OCO3)CC2(CCCC(COC(=O)NCC3CCCCC3)O2)O1 (stereo not given in full)" assay_result=-0.38
compound=CC[C@@H](c1ccccc1)n1c(=O)n2n(c1=O)[C@H]1[C@H](O)[C@@H]3O[C@@H]3C(=NOCC=C(C)CCC=C(C)C)[C@H]1CC2 assay_result=1.28
compound=O=C1[C@H]2[C@H]3[C@H](O)[C@H](O)CC(=NO[C@@H]4O[C@H](CO)[C@@H](O)[C@H](O)[C@H]4O)[C@H]3CC[C@H]2C(=O)N1Cc1ccccc1 assay_result=-0.987
compound=CO[C@@H]1COC(=O)CC=C[C@@H](C)[C@@H]2C=C[C@@H](O)[C@@H](COC(=O)CC=C[C@H]1C)O2 assay_result=-0.562
compound=COC(=O)[C@]1(CO)N=C(c2ccc(OCCCO)cc2)O[C@@H]1c1ccccc1N=[N+]=[N-] assay_result=-1.12
compound=CO[C@H]1COC(=O)[C@@H]2CCCN2C(=O)[C@@H](C)COC(=O)CC=C[C@@H]1C assay_result=-1.53
compound="CC(=O)O[C@H]1C2=C(C(=O)[C@@H]3O[C@@H]31)[C@H]1C(C)O[C@@H]2[C@@]23C(=O)[C@@H]4O[C@@H]4[C@@H](O)C2=CO[C@H](C)[C@@H]13 (stereo not given in full)" assay_result=0.465
compound=C=CC[C@@H]1C=C[C@H](ON=C[C@@H](OC)[C@H](C)C=CCC(=O)OC)[C@@H](CO)O1 assay_result=0.634
compound=CCCCCCc1nc(CCCc2cc3c(c(CCCCCC)n2)[Si](C(C)C)(C(C)C)O[C@H]3c2ccccc2)cc2c1[Si](C(C)C)(C(C)C)O[C@H]2c1ccccc1 assay_result=-0.146
compound=CCc1cc2c(nc1CC)CCN(CCC(C)=NO[C@@H](C)c1cc(-c3c(C)cc(C)cc3C)no1)C2 assay_result=-1.26
compound=CC(C)=NOCc1ccc(-c2cc(-c3ccccc3)no2)cc1 assay_result=0.213
compound=COCCCNC(=O)[C@]1(CCC(=O)OC(C)(C)C)N=C(c2ccc(OCCCO)cc2)O[C@@H]1c1ccccc1N=[N+]=[N-] assay_result=0.719

* * *

# Target Of Assay: Torsin-1A (Homo sapiens) (UniProt O14656)
# Sequence (O14656 whole entry, looked up): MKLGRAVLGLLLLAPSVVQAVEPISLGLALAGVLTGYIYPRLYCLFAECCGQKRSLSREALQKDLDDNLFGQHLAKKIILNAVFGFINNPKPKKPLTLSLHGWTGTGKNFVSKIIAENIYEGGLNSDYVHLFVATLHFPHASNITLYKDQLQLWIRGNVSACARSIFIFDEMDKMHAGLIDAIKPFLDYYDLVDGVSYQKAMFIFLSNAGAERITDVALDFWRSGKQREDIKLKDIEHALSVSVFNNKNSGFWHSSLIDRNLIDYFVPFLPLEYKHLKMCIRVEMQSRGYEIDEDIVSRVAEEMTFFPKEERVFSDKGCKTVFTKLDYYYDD
# Method Description: torsin A binders from cell lysate, primary screen, small-molecule microarray, wild-type, 635/667 nm (AID 1149)
# Study Conditions: COS7 hTOR1A-WT lysate, 635 nm fluorescence, higher = more signal
Property Name: composite z-score

molecule=O=C1[C@H]2[C@H]3[C@H](O)[C@H](O)CC(=NO[C@@H]4O[C@H](CO)[C@@H](O)[C@H](O)[C@H]4O)[C@@H]3CC[C@H]2C(=O)N1Cc1ccc2c(c1)OCO2 property_name="composite z-score" assay_result=0.35
molecule=COc1ccc(-c2nc3c(c4c2C[C@H](C)OC4)CN(CCC(C)C)CC3)cc1 property_name="composite z-score" assay_result=-0.253
molecule=CC(C)[Si]1(C(C)C)O[C@@H](c2ccccc2)c2cc(C3CC3)nc(-c3ccccc3)c21 property_name="composite z-score" assay_result=-1
molecule=CC(C)NC(=O)[C@@]1(c2ccc([N+](=O)[O-])cc2)CC(=O)N(CC23CC4CC(CC(C4)C2)C3)[C@@H]1c1ccc(CO)cc1I property_name="composite z-score" assay_result=0.484
molecule=CC(CCC(=O)OC[C@H]1O[C@H](C#Cc2ccccc2)C=C[C@@H]1Oc1ccc(C)cc1)=NO[C@@H](C)c1cn([C@H](CO)Cc2ccccc2)nn1 property_name="composite z-score" assay_result=-0.323
molecule="O=C1CCCC2OC12C(O)CCc1ccccc1 (stereo not given)" property_name="composite z-score" assay_result=0.0994
molecule=CN1C(=O)[C@@]2(CCC(=O)OC(C)(C)C)N=C(c3ccc(OCCCO)cc3)O[C@H]2c2ccccc21 property_name="composite z-score" assay_result=-0.132
molecule=CC(C)CON=C1C[C@@H](O)[C@@H](O)[C@@H]2[C@@H]3C(=O)N(Cc4ccccc4)C(=O)[C@@H]3CC[C@@H]12 property_name="composite z-score" assay_result=0.407
molecule=C#C[C@@H](CC)O[Si](C#Cc1ccc(Oc2ccccc2)cc1)(C(C)C)C(C)C property_name="composite z-score" assay_result=0.293
molecule="CCOC(=O)[C@H](Cc1ccccc1)NC(=O)CCC1CC(OC(=O)NCc2ccc3c(c2)OCO3)CC2(CCCC(COC(=O)NCc3ccccc3)O2)O1 (stereo not given in full)" property_name="composite z-score" assay_result=0.0156
molecule=C=CC[C@@H]1C=C[C@H](ON=Cc2ccc(C(=O)N3[C@H](c4ccc(C)cc4)[C@@H](C)CC[C@H]3C(=O)OC)cc2)[C@@H](CO)O1 property_name="composite z-score" assay_result=-0.0434
molecule=CO[C@@H]1COC(=O)CC=C[C@@H](C)[C@H](OC)COC(=O)[C@H](COCc2ccccc2)NC(=O)CC=C[C@H]1C property_name="composite z-score" assay_result=1.35
molecule=Cc1ccc(S[C@]2(C(=O)NCC(F)(F)F)CC(=O)N(Cc3ccccc3Cl)[C@@H]2c2ccc(CO)cc2I)cc1 property_name="composite z-score" assay_result=-0.396
molecule="COc1ccc(-c2ccc3c(n2)CCCN3CC(O)CN2CCCc3nc(C)c(C)cc32)cc1 (stereo not given)" property_name="composite z-score" assay_result=0.785
molecule=O=C1[C@H]2[C@H]3[C@H](O)[C@H](O)CC(=NO[C@@H]4O[C@H](CO)[C@@H](O)[C@H](O)[C@H]4O)[C@H]3CC[C@H]2C(=O)N1C1CCCCC1 property_name="composite z-score" assay_result=1.03
